Test system: Salmonella typhimurium
Assay: Mutagenicity in Salmonella typhimurium TA1535 assessed as number of revertants at 4 ug/plate by Ames test (reference value: 10 +/- 3)
Type: toxicity, organism-based
Conditions: salmonella enterica subsp. enterica serovar typhimurium
measurement-type: Activity
Enter the number alone.

Known Activity results, listed for orientation:
O=C(/C=C/c1ccccc1)N[C@H]1CCCC[C@@H]1O (racemic)	5
CC(O)CNC(=O)/C=C/c1ccccc1 (racemic)	12
CC(CO)NC(=O)/C=C/c1ccccc1 (racemic)	15
CCC(CO)NC(=O)/C=C/c1ccccc1 (racemic)	11

Measured Activity, O=C(/C=C/c1ccccc1)N1CCC(O)CC1 : 5

Noted for CCC(O)CNC(=O)/C=C/c1ccccc1 (racemic) : its Activity reads 9

Lab note: measured Activity of CC(C)C(CO)NC(=O)/C=C/c1ccccc1 (racemic) was 5
